# testSystem: T1, full length human KLRG1 (human, UniProt Q96E93 1-195)
# T1 sequence (looked up): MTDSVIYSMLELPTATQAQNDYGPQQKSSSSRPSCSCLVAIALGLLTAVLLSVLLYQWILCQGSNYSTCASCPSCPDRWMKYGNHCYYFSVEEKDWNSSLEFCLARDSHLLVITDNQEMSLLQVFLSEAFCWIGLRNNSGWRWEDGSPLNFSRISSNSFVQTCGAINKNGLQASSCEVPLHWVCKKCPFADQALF
# protocolDescription: cell-based or functional assay
Reported IFNγ is given for each of the following binders.

{"columns": ["binder", "IFNγ, pg/mL"],
 "data": [
  ["ABC_G1N02 (antibody, V domains shown, Mouse hybridoma monoclonal antibody) VH: QVTLKESGPGILQPSQTLSLTCSVSGFSLSTFGMGVGWIRQPSGKGLEWLAHIWWDDDKWYELALKSRLTISKDSSKNQVFLKIANVDTADTATYFCARVIYYGSRSAYYSMDYWGPGTSVTVSS VL: DVLMTQTPLSLPVSLGAQASISCKSSQSIVHSNGHTYLEWYLQKPGQSPKILIYKVSNRFSGVPDRFSGSGSGTDFTLKISRVEAEDLGVYYCFQGSHVPVTFGAGTKLELK", 1370],
  ["ABC_G1N05 (antibody, V domains shown, Mouse hybridoma monoclonal antibody) VH: EVLLMESGGDLVKPGGSLKLSCAASGFTFSSYDMSWVRQTPDKRLEWVATISSSGRYTFYPDNVKGRFTISRDNAKNTLYLQVSNLKSEDTAMYYCSRTGVTTVVFTDYFDYWGQGTTLTVSS VL: DIQMTQSPSSLSASLGERVSLTCRASQDIGNSLNWLQQGPDGTIKRLIYATSSLDSGVPKRFSGSRSGSTYSLTISSLESEDFVAYYCLQYLSSPPTFGGGTKLEIK", 1050],
  ["ABC_G1N01 (antibody, V domains shown, Mouse hybridoma monoclonal antibody) VH: QVILKESGPGILQPSQTLSLTCSFSGFSLTTFGMGIGWIRHPSGKALEWLAHIWWNDDKSYNSALKSRLTISKDTSKNQVFLRLANVATADTATYYCARTIYYGNYLTFYAMEHWGQGTSVTVSS VL: DVLLTQTPLSLPVSLGDQASISCRSSQNIVHSNGNTYLEWYLLKPGQSPKLLIFKVSNRFSGVPDKFSGSGSGTDFTLKIRRVEAEDLGIYYCFQGSHVPPTFGAGTKLELK", 1200],
  ["ABC_G1N07 (antibody, V domains shown, Mouse hybridoma monoclonal antibody) VH: EVQLVESGGGLVKPGGSLKLSCTASGFTFRNYAMSWVRQTPEKRLEWVATISESGNYNNYPDNVKGRLTISRDNAKNNLYLQMSLLKSEDTAMYYCVRDDWEGRAMDYWGQGTSVTVSS VL: GIQMTQSPSSLSASLGERVSLTCRASRDIGSSLNWLQQKPDGTIKRLIYATSSLDSGVPKRFSGSRSGTDYSLTISSLESEDFVDYFCLQYASSPWTFGGGTKLEIK", 1480]
]}
